target: Histone deacetylase 2 (Homo sapiens, UniProt Q92769)
Sequence (Q92769 whole entry): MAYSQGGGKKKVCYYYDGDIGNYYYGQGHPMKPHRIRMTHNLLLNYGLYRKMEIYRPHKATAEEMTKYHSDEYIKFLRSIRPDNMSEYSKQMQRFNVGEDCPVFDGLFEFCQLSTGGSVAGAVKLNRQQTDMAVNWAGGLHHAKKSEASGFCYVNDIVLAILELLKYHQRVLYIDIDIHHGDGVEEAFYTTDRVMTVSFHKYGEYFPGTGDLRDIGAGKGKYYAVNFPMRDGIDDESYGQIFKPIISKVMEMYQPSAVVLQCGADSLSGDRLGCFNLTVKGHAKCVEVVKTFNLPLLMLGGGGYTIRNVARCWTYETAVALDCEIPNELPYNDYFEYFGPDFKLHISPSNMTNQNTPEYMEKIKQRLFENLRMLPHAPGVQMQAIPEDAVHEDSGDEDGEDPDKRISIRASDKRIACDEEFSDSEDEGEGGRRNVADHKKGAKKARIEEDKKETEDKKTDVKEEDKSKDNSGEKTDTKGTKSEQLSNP
pIC50: −log10 of the molar value.
Each entry gets 0 if its pIC50 stays under 7, and 1 if its pIC50 is 7 or above.

Task: hey, is pIC50 for this one >= 7? COc1cc2nc(-c3ccc(C)o3)nc(NCC3CCN(c4ncc(C(=O)NO)cn4)CC3)c2cc1OC
Output: 1

Task: hey, is pIC50 for this one >= 7? COc1cc2c(NCc3ccc(C(=O)NO)cc3)cc(-c3ccc(C)o3)nc2cc1OCCCN1CCCC1
Output: 1

Task: hey, is pIC50 for this one >= 7? COc1cc2nc(-c3ccc(C)o3)cc(NCC3CCC(C(=O)NO)CC3)c2cc1OC (centres undefined)
Output: 0

Task: hey, is pIC50 for this one >= 7? COc1cc2c(NCC3CCN(C)CC3)cc(-c3ccc(C)o3)nc2cc1OCCCN1CCCC1
Output: 0

Task: hey, is pIC50 for this one >= 7? COc1cc2nc(-c3ccc(C)o3)cc(NC3CCN(c4ncc(C(=O)NO)cn4)CC3)c2cc1OC
Output: 0

Task: hey, is pIC50 for this one >= 7? COc1cc2c(NC3CCN(C)CC3)cc(-c3ccc(C)o3)nc2cc1OCCCN1CCCC1
Output: 0

====

tested on: MM1.S; assay: Antiproliferative activity against human MM1.S cells assessed as inhibition of cell proliferation measured up to 72 hrs by CellTiter96 Aqueous one reagent based assay; type: functional; conditions: time hrs <=72, read-out: pGI50 (converted)
recorded_metric: GI50 (nM)
Give the value in nM but do not write nM after it.

Lab note: measured GI50 of COc1cc2nc(-c3ccc(C)o3)cc(NCC3CCN(Cc4ccc(C(=O)NO)s4)CC3)c2cc1OC was 1950

Lab note: measured GI50 of COc1cc2c(NCc3ccc(C(=O)NO)cc3)cc(-c3ccc(C)o3)nc2cc1OCCCN1CCCC1 was 4470

Lab note: measured GI50 of Cc1[nH]c2ccccc2c1CCNCc1ccc(/C=C/C(=O)NO)cc1 was 8.91

Lab note: measured GI50 of COc1cc2c(NCC3CCN(Cc4ccc(C(=O)NO)cc4)CC3)cc(-c3ccc(C)o3)nc2cc1OCCCN1CCCC1 was 3550

Lab note: measured GI50 of COc1cc2nc(-c3ccc(C)o3)cc(NCC3CCN(Cc4ccc(C(=O)NO)cc4)CC3)c2cc1OC was 219

Lab note: measured GI50 of COc1cc2c(NCC3CCN(C)CC3)cc(-c3ccc(C)o3)nc2cc1OCCCN1CCCC1 was 3800

Lab note: measured GI50 of COc1cc2c(NC3CCN(C)CC3)cc(-c3ccc(C)o3)nc2cc1OCCCN1CCCC1 was 1070

Lab note: measured GI50 of COc1cc2nc(-c3ccc(C)o3)cc(NCC3C4CCC3CN(c3ncc(C(=O)NO)cn3)C4)c2cc1OC (stereo not given) was 457

Lab note: measured GI50 of COc1cc2nc(-c3ccc(C)o3)cc(NCc3ccc(C(=O)NO)cc3)c2cc1OC was 525

Lab note: measured GI50 of COc1cc2c(NCC3CCN(c4ncc(C(=O)NO)cn4)CC3)cc(-c3ccc(C)o3)nc2cc1OCCCN1CCCC1 was 2090

Lab note: measured GI50 of COc1cc2nc(C3CCCCC3)cc(NCC3CCN(c4ncc(C(=O)NO)cn4)CC3)c2cc1OC was 195

Lab note: measured GI50 of COc1cc2nc(-c3ccc(C)o3)cc(NCC3CCN(C4CC(C(=O)NO)C4)CC3)c2cc1OC (stereo not given) was 2000

Numbers sourced from ChEMBL document CHEMBL4834403.
